- Test system: Mycosphaerella graminicola; Anamorph: Septoria tritici; Bayer Code SEPTTR
- TEST PROTOCOL: Leaf blotch of wheat, foliar fungicide treatment, one day protectant (1DP) or three day curative (3DC)
- Type: in vivo, Septoria tritici on wheat plants (variety Yuma)
- CONDITION NOTES: Zymoseptoria tritici, 24 h, one day protectant (1DP), 100 ppm, rating of percent disease control, read-out: SEPTTR 1DP 100 ppm
METRIC: pest or weed control at 100 ppm

INSERT INTO assay_data (molecule, metric, result) VALUES
  ('CCCCCCOc1ncc(F)c(NC(=O)Nc2ccsc2)n1', 'pest or weed control at 100 ppm', '0 to 25%'),
  ('COc1ccc(CCCOc2ncc(F)c(N)n2)cc1', 'pest or weed control at 100 ppm', '76 to 100%'),
  ('NN(c1ccccc1)c1nc(OCc2ccccc2)ncc1F', 'pest or weed control at 100 ppm', '0 to 25%'),
  ('Nc1nc(ON=C(c2ccccc2)c2ccccc2)ncc1F', 'pest or weed control at 100 ppm', '76 to 100%'),
  ('O=[N+]([O-])c1ccccc1SNc1nc(OCc2ccc(F)c(F)c2)ncc1F', 'pest or weed control at 100 ppm', '76 to 100%'),
  ('Fc1cnc(OCc2ccccc2)nc1NCOCc1ccccc1', 'pest or weed control at 100 ppm', '76 to 100%'),
  ('COCCCOc1ncc(F)c(NC(C)=O)n1', 'pest or weed control at 100 ppm', '76 to 100%'),
  ('CCOCc1cccc(COc2ncc(F)c(N)n2)c1', 'pest or weed control at 100 ppm', '76 to 100%'),
  ('CC(Oc1ncc(F)c(/N=C/N2CCOCC2)n1)c1ccc(F)cc1 (stereo not drawn)', 'pest or weed control at 100 ppm', '76 to 100%'),
  ('O=C(NCc1ccccc1F)Nc1nc(OCc2ccccc2)ncc1F', 'pest or weed control at 100 ppm', '0 to 25%'),
  ('N#Cc1ccnc(COc2ncc(F)c(N)n2)c1', 'pest or weed control at 100 ppm', '26 to 50%'),
  ('O=[N+]([O-])c1ccccc1NNc1nc(OCc2ccc(Cl)c(Cl)c2)ncc1F', 'pest or weed control at 100 ppm', '76 to 100%');
